Data origin, for the record: patent US20250221966A1

Target: human RXFP1 (Homo sapiens, UniProt Q9HBX9)
Construct: expressed in transfected cells
Experiment: RXFP1 cAMP assay (hRXFP1 HEK293 cAMP assay, HTRF)
Assay type: cell-based
Settings: HEK293 cells stably expressing human RXFP1, 30 min at room temperature, read-out: cAMP hRXFP1 HEK293 Assay EC50
Below, each entry is listed with its recorded EC50.
valueType: EC50 (nM)

- molecule: "COc1cc(F)c(F)cc1C(=O)N[C@@H]1C2CCC(/C2=C/C=C/CCCc2ccccc2)[C@@H]1C(=O)Nc1ccc(F)c(C(F)(F)F)c1 (stereo partly drawn)"
  measuredNumber: 15
- molecule: "COc1ccc(C2=NOC(C(C)O)C2)cc1C(=O)N[C@H]1[C@@H](C(=O)Nc2ccc(F)c(C(F)(F)F)c2)[C@H]2CC[C@@H]1/C2=C\\C1CC1 (single isomer, unassigned) [compound 595]"
  measuredNumber: 92.7
- molecule: "COc1ccc(-c2cc(C(C)OC(=O)Nc3ccccc3)ccc2F)cc1C(=O)N[C@H]1[C@@H](C(=O)Nc2ccc(F)c(C(F)(F)F)c2)[C@H]2CC[C@@H]1/C2=C\\C1CC1 (stereo partly drawn)"
  measuredNumber: 1
- molecule: "COc1ccc(C2CCN(CC(C)(C)O)C2)cc1C(=O)N[C@@H]1C2CCC(C2=CC2CC2)[C@@H]1C(=O)Nc1ccc(F)c(C(F)(F)F)c1 (stereo partly drawn) [compound 568]"
  measuredNumber: 59.4
- molecule: "COc1ccc(F)cc1C(=O)N[C@@H]1C2CCC(C2=C(C)C)[C@@H]1C(=O)Nc1ccc(F)c(C(F)(F)F)c1 (stereo partly drawn)"
  measuredNumber: 860
- molecule: "COc1ccc(-c2ccc(C3=NOC(CO)C3)cc2F)cc1C(=O)N[C@@H]1C2CCC(/C2=C/C2CCCC2)[C@@H]1C(=O)Nc1ccc(F)c(C(F)(F)F)c1 (stereo partly drawn)"
  measuredNumber: 1

---

Target: human RXFP1 (Homo sapiens)
Construct: expressed in transfected cells
Assay: RXFP1 cAMP assay (hRXFP1 HEK293 cAMP assay, HTRF)
Assay type: cell-based
Conditions: HEK293 cells stably expressing human RXFP1, 30 min at room temperature, read-out: cAMP hRXFP1 HEK293 Assay EC50
Bucketed by reported EC50, buckets being Low: < 4 nM; Mid: ≥ 4 nM and < 200 nM; High: ≥ 200 nM

- compound: "COc1ccc(C2=NOC3CC(NC(=O)CO)CC23)cc1C(=O)N[C@@H]1C2CCC(/C2=C/C2CC2)[C@@H]1C(=O)Nc1ccc(F)c(C(F)(F)F)c1 (some centres unmarked) [compound 743]"
  assignedCategory: "Mid"
- compound: "COc1ccc(-c2cc(C(=O)O)ccc2F)cc1C(=O)N[C@@H]1C2CCC(/C2=C/C2CC2)[C@@H]1C(=O)NC1CCC1 (some centres unmarked) [compound 202]"
  assignedCategory: "Mid"
- compound: "CCOC(=O)/C=C1\\C2CCC1[C@H](C(=O)Nc1ccc(F)c(C(F)(F)F)c1)[C@@H]2NC(=O)c1cc(F)c(F)cc1OC (some centres unmarked) [compound 7]"
  assignedCategory: "High"
- compound: "COc1ccc(C2=NC[C@@H]3CCCN23)cc1C(=O)N[C@H]1[C@@H](C(=O)Nc2ccc(F)c(C(F)(F)F)c2)[C@H]2CC[C@@H]1/C2=C\\C1CC1 [compound 708]"
  assignedCategory: "High"
- compound: "CNC(=O)OC(c1ccc(F)c(-c2ccc(OC)c(C(=O)N[C@@H]3C4CCC(/C4=C/C4CC4)[C@@H]3C(=O)Nc3ccc(F)c(C(F)(F)F)c3)c2)c1)C(F)(F)F (some centres unmarked) [compound 217]"
  assignedCategory: "Low"
- compound: "COc1c(F)cc(C2=NOC3CC(CO)CC23)cc1C(=O)N[C@H]1[C@@H](C(=O)N[C@H](C)C2(C)CC2)[C@H]2CC[C@@H]1/C2=C\\CCC(F)(F)F (some centres unmarked) [compound 834]"
  assignedCategory: "Low"
- compound: "COc1cc(F)c(F)cc1C(=O)N[C@@H]1C2CCC(C2=C(C)C)[C@]1(F)C(=O)Nc1ccc(F)c(C(F)(F)F)c1 (some centres unmarked) [Example 51]"
  assignedCategory: "High"
- compound: "COc1ccc(C2=NO[C@H]3C[C@H](CO)C[C@@H]23)cc1C(=O)N[C@H]1[C@@H](C(=O)Nc2ccc(F)c(C(F)(F)F)c2)[C@H]2CC[C@@H]1/C2=C\\CC(O)C(F)(F)F (some centres unmarked) [compound 826]"
  assignedCategory: "Low"

---

Biological target: human RXFP1 (Homo sapiens, UniProt Q9HBX9)
Construct: expressed in transfected cells
Sequence (Q9HBX9 1-757): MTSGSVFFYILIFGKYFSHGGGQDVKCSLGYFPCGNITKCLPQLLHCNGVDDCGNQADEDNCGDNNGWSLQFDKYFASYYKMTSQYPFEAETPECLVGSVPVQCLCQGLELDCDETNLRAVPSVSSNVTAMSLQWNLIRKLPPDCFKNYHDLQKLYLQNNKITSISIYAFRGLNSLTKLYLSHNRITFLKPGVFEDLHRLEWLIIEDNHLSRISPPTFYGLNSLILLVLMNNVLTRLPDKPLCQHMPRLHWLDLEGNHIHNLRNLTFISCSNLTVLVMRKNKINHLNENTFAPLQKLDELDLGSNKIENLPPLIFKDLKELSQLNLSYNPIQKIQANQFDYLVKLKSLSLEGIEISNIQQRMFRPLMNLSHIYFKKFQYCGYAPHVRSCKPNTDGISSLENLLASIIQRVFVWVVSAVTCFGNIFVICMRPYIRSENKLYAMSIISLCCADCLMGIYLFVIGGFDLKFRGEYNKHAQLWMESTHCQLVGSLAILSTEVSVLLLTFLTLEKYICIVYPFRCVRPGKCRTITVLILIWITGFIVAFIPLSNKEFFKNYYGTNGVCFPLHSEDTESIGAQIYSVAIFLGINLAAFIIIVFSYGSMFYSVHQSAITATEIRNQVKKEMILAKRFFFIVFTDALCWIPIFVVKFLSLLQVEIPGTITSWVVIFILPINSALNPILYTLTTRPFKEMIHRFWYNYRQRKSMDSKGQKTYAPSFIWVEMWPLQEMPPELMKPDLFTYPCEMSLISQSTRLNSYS
Experiment: RXFP1 cAMP assay (hRXFP1 HEK293 cAMP assay, HTRF)
Type: cell-based
Conditions: HEK293 cells stably expressing human RXFP1, 30 min at room temperature, read-out: cAMP hRXFP1 HEK293 Assay EC50
pEC50: −log10 of the molar value.
valueType: pEC50

- compound: "COc1ccc(-c2cccc(C3=NOC4CC(O)CC34)c2)cc1C(=O)N[C@H]1[C@@H](C(=O)Nc2ccc(F)c(C(F)(F)F)c2)[C@H]2CC[C@@H]1/C2=C\\C1CC1 (some centres unmarked) [compound 902]"
  targetOrSystem: "human RXFP1 (Homo sapiens, UniProt Q9HBX9)"
  measuredNumber: 8.06
- compound: "COc1ccc(C2=NOC3COCC23)cc1C(=O)N[C@@H]1C2CCC(/C2=C/C2CCC2)[C@@H]1C(=O)Nc1ccc(F)c(C(F)(F)F)c1 (single isomer, unassigned) [Example 416]"
  targetOrSystem: "human RXFP1 (Homo sapiens, UniProt Q9HBX9)"
  measuredNumber: 9.00
- compound: "COc1ccc(N2CCCC(CO)C2)cc1C(=O)N[C@@H]1C2CCC(/C2=C/C2CC2)[C@@H]1C(=O)Nc1ccc(F)c(C(F)(F)F)c1 (single isomer, unassigned) [compound 704]"
  targetOrSystem: "human RXFP1 (Homo sapiens, UniProt Q9HBX9)"
  measuredNumber: 5.89
- compound: "COc1ccc(-c2cc(C(=O)O)ccc2F)cc1C(=O)N[C@@H]1C2CCC(/C2=C/c2ccccc2)[C@@H]1C(=O)Nc1cccc(S(=O)(=O)C(F)(F)F)c1 (some centres unmarked) [compound 122]"
  targetOrSystem: "human RXFP1 (Homo sapiens, UniProt Q9HBX9)"
  measuredNumber: 7.89
- compound: "COc1ccc(C2=NOC3CN(CCO)CC23)cc1C(=O)N[C@H]1[C@@H](C(=O)Nc2ccc(F)c(C(F)(F)F)c2)[C@H]2CC[C@@H]1/C2=C\\C1CC1 (single isomer, unassigned) [compound 455]"
  targetOrSystem: "human RXFP1 (Homo sapiens, UniProt Q9HBX9)"
  measuredNumber: 8.70

---

Target: human RXFP1 (Homo sapiens)
Construct: expressed in transfected cells
Assay: RXFP1 cAMP assay (hRXFP1 HEK293 cAMP assay, HTRF)
Format: cell-based
Settings: HEK293 cells stably expressing human RXFP1, 30 min at room temperature, read-out: cAMP hRXFP1 HEK293 Assay EC50

- molecule: "COCCOCCOc1ccc(-c2cc(C(=O)O)ccc2F)cc1C(=O)N[C@@H]1C2CCC(/C2=C/c2ccccc2)[C@@H]1C(=O)Nc1ccc(F)c(C(F)(F)F)c1 (some centres unmarked) [Example 199]"
  measureUnit: "nM"
  EC50: 128
- molecule: "COc1ccc(-c2cc(C3=NOC4CC(O)CC34)ccc2F)cc1C(=O)N[C@H]1[C@@H](C(=O)Nc2ccc(F)c(C(F)(F)F)c2)[C@H]2CC[C@@H]1/C2=C\\C1CC1 (some centres unmarked) [compound 908]"
  measureUnit: "nM"
  EC50: 3.5
- molecule: "COc1ccc(-c2cc(C(OC(=O)NC3CCC3)C(F)(F)F)ccc2F)cc1C(=O)N[C@@H]1C2CCC(/C2=C/C2CC2)[C@@H]1C(=O)Nc1ccc(F)c(C(F)(F)F)c1 (some centres unmarked) [compound 211]"
  measureUnit: "nM"
  EC50: 1
- molecule: "COc1ccc(C2=NOC3CC(CO)CC23)cc1C(=O)N[C@H]1[C@@H](C(=O)N[C@H](C)C2(C)CC2)[C@H]2CC[C@@H]1/C2=C\\C1CC1 (some centres unmarked) [compound 766]"
  measureUnit: "nM"
  EC50: 2.7
- molecule: "COc1ccc(C2=NOC3CC(C(C)(C)O)CC23)cc1C(=O)N[C@H]1[C@@H](C(=O)Nc2ccc(F)c(C(F)(F)F)c2)[C@H]2CC[C@@H]1/C2=C\\C1CC1 (single isomer, unassigned) [compound 599]"
  measureUnit: "nM"
  EC50: 104
